Where these numbers come from: paper PMC11124362

Protein target, amino acids: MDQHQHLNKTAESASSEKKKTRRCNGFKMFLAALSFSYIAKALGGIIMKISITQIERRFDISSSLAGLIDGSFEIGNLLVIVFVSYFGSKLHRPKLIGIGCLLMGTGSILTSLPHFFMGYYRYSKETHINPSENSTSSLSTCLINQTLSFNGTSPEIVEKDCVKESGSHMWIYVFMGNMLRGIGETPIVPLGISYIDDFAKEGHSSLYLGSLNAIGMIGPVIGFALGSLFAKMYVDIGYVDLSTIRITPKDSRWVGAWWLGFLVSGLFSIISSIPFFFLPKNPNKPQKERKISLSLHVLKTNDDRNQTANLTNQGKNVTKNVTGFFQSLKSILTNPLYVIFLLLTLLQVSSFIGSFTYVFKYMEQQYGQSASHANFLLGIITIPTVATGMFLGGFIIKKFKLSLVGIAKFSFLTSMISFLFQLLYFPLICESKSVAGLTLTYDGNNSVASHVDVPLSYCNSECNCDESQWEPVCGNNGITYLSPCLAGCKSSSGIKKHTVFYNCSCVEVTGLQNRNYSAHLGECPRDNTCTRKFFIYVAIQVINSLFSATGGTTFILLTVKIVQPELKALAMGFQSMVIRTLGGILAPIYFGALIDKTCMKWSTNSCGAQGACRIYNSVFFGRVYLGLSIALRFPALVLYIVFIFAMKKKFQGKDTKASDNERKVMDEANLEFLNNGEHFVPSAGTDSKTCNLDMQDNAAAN
pIC50: −log10 of the molar value.

GIVEN_SMILES	pIC50
CN1CCC(N(Cc2ccc(F)cn2)C(=O)NCc2ccc(OCC(F)(F)F)cc2)CC1	4.05
